Reference source: patent US20150246947A1

Parameter IC50: see the listing below.
# system_tested: T1, human Protein S (UniProt P07225 42-676)
# T1 chain: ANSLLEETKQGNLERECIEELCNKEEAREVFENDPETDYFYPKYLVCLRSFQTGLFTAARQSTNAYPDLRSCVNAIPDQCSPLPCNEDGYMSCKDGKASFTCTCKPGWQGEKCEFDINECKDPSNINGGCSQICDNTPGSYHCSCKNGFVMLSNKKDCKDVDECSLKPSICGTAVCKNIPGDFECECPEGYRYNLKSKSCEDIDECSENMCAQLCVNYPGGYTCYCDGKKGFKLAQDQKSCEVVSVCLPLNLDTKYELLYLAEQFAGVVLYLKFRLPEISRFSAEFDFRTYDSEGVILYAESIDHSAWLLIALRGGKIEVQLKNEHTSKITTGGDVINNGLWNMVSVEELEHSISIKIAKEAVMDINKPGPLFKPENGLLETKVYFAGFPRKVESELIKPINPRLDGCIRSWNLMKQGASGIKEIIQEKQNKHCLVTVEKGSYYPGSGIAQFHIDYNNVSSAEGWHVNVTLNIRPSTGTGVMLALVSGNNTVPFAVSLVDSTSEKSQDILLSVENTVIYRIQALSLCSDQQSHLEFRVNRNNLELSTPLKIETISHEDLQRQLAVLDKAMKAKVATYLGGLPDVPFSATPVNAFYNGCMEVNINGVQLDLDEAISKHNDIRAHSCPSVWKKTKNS
# assay_comment: LANCE competition
Reply with the number and its unit after it.

See these solved cases before continuing.
Ac-YGIVSAGWYEYNTDIYEEFW-NH2 [JBS3257] = 14.8 nM
Ac-HIYVTAGWYDYNTDTYHEFE-NH2 [JBS3284] = 1.3 nM
Ac-EGYVSAGWYDYNQDIYFEFA-NH2 [JBS3260] = 1.6 nM

Here is the next item to consider.
Prompt: Would you mind telling me what IC50 value was observed for Ac-KDKVSAGWYDYNSDTYYEFT-NH2 [JBS3300] ?
Completion: 3.2 nM
